Molecular target: UniProt:P41597
Sequence (P41597 whole entry): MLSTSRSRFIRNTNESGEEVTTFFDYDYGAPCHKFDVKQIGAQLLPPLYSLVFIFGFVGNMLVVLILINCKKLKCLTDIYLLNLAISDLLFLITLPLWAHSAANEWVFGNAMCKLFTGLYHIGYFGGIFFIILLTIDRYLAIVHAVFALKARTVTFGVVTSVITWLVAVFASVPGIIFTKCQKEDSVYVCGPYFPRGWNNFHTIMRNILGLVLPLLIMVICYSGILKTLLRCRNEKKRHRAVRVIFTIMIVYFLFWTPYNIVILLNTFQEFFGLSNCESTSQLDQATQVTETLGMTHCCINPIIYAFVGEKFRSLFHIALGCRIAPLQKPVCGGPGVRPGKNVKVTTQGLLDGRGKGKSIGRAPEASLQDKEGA
Assay: [3H]CCR2-RA-[R] displacement, […] h preincubation
Assay type: binding
Parameters: CCR2 stably expressed in U2OS membranes
pKi: −log10 of the molar value.
parameter: pKi

Take a look at these entries with their results.
compound | pKi
C#CCOCCOCCOc1cc(NC(=O)CCSC#N)ccc1Oc1ccc(Cl)cc1NS(=O)(=O)c1ccc(Cl)c(C(F)(F)F)c1 [8c] | ~8.89
C#CCOCCOc1cc(NC(=O)CCSC#N)ccc1Oc1ccc(Cl)cc1NS(=O)(=O)c1ccc(Cl)c(C(F)(F)F)c1 [8b] | ~8.89

Item: C#CCOc1cc(NC(=O)CCSC#N)ccc1Oc1ccc(Cl)cc1NS(=O)(=O)c1ccc(Cl)c(C(F)(F)F)c1 [8a] | System: UniProt:P41597 | pKi: ~8.89
